# assay text: NCI Yeast Anticancer Drug Screen. Data for the bub3 strain (AID 167)
# experimental context: S. cerevisiae bub3 mutant strain, at 5.0 µM (retest, dose inferred, filed as 0.5), hits give high values
Compounds without any hit were thinned out: in the full panel of roughly 79,000, 15% have a hit.

compound: CSC(=S)N/N=C(\C)c1ccc[nH]1
u: %
growth inhibition: 0

compound: Cc1ccc(Cl)cc1NN
u: %
growth inhibition: -2

compound: O=C(N/C(=C\c1ccc(Oc2ccc(Cl)c(Cl)c2)cc1)c1nc2ccccc2[nH]1)c1ccccc1
u: %
growth inhibition: 15

compound: CN(C)C(=S)/N=c1\ss/c(=N\C(=S)N(C)C)n1Cc1ccco1
u: %
growth inhibition: 0

compound: CC(C)CCOC(=O)c1ccc(O)cc1.[Zn+2]
u: %
growth inhibition: 53

compound: CCCCCCCCN=C(N)c1ccc(C(=O)OCC2CCCCC2)cc1
u: %
growth inhibition: 98

compound: CC1(C(=O)O)CCC2(C)CCC3(C)C(=CC(=O)C4C5(C)CCC(O)C(C)(C)C5CCC43C)C2C1 (stereo unspecified)
u: %
growth inhibition: 29

compound: CC1(C)C[C@H]2C=C(C=O)[C@]34C[C@]3(C(=O)OC4O)[C@H]2C1 (stereo partly specified)
u: %
growth inhibition: 97

compound: NS(=O)(=O)c1ccc(NC(=S)/N=C/c2c(O)c3ccccc3[nH]c2=O)cc1
u: %
growth inhibition: -10

compound: Cc1cc2nc(-c3ccccc3[N+](=O)[O-])[nH]c2cc1C
u: %
growth inhibition: 6

compound: CCCC(C)NCCCCCNc1cc(OC)cc2cccnc12 (stereo unspecified)
u: %
growth inhibition: 19

====

# assay text: NCI Yeast Anticancer Drug Screen. Data for the sgs1 mgt1 strain (AID 161);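 note: 0% = growth of cultures given vehicle only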
# experimental context: S. cerevisiae sgs1 mgt1 strain, at 50.0 µM, hits give high values
The panel holds about 79,000 compounds, 15% with a hit somewhere; the sample as a whole holds those more often.
Label 1.0 when growth inhibition >= 50%; otherwise 0.0.

compound: N=C1C(=O)c2ccccc2-c2ccccc21
discrete label: 1.0

compound: C[CH2][Sn]([CH2]C)([O]C(=O)c1cc(OC)c(OC)c(OC)c1)[O][Sn]([CH2]C)([CH2]C)[O]C(=O)c1cc(OC)c(OC)c(OC)c1
discrete label: 0.0

compound: COc1cc(NCC(C#N)C#N)ccc1N=Nc1ccc(Cl)cc1
discrete label: 1.0

compound: CN=C(NC1CCCCC1)c1ccc(NC(=O)c2ccc(C(=O)Nc3ccc(C(=NC)NC4CCCCC4)cc3)cc2)cc1
discrete label: 1.0

compound: Oc1ccc(COCCBr)c2cccnc12
discrete label: 1.0

compound: CC[N](CC)[Ge]([CH2]C)[CH2]C.CC[N](CC)[Ge]([CH2]C)[CH2]C
discrete label: 1.0

compound: COC(=O)/C=C1/OC(c2ccccc2)=CC1=O
discrete label: 1.0

compound: CCc1scc(C)[n+]1CC(=O)c1cccc([N+](=O)[O-])c1
discrete label: 0.0

compound: CCOC(=O)c1cnc2cc3cccccc3n2c1=O
discrete label: 1.0

compound: c1ccc2c3ccn4ccc5c6ccccc6[nH]c5c4c-3nc2c1
discrete label: 0.0

compound: O=C(c1ccccc1)c1ccc2c(c1Cl)C(=O)c1ccccc1C2=O
discrete label: 1.0

compound: O=C(Nc1cc(-c2ccccc2)[nH]n1)c1ccccc1
discrete label: 0.0

compound: C1CCC2CC3(CCNCC3)CCC2C1 (centres undefined)
discrete label: 1.0

compound: CCC1(C)OC(=O)C(c2ccccc2)O1 (centres undefined)
discrete label: 0.0

compound: CC(C)(C)C(=O)OCC(=O)c1ccc(-c2ccccc2)cc1
discrete label: 0.0

compound: O=C1c2cc([N+](=O)[O-])cc3cc([N+](=O)[O-])cc(c23)C(=O)N1CCCNCCNCCCN1C(=O)c2cc([N+](=O)[O-])cc3cc([N+](=O)[O-])cc(c23)C1=O
discrete label: 1.0

compound: Cc1cc(N2C(=O)CSC2=S)c([N+](=O)[O-])cc1C
discrete label: 1.0

compound: CNc1ccc(C(=O)NC(CCCCNC(=O)OCc2ccccc2)C(=O)OC)cc1 (centres undefined)
discrete label: 1.0

compound: C=C(C)COc1ccccc1C(OCC)OCC
discrete label: 0.0

compound: C(=Nc1ccccc1)c1cn(Cc2ccccc2)c2ccccc12
discrete label: 1.0

compound: CCC1CCC2C3CC=C4CC(OC(C)=O)C(N)CC4(C)C3CCC12C (centres undefined)
discrete label: 1.0

compound: Clc1ncccc1-n1cccc1/C=N\N=C/c1cccn1-c1cccnc1Cl
discrete label: 0.0

compound: Cc1[nH]c(=O)[nH]c(=O)c1CN(C)Cc1cc(Cl)cc(Cl)c1O
discrete label: 1.0

compound: CC(=O)N/N=C1/CC[C@@]2(C)C(=CC[C@H]3C4CCC(C(C)CCCC(C)C)[C@@]4(C)CCC32)C1(C)C (some centres undefined)
discrete label: 0.0

compound: O=C1c2ccccc2C(=O)c2ncccc21
discrete label: 1.0

compound: COC(=O)C1C(=O)CC(c2ccccc2)C1c1ccccc1 (centres undefined)
discrete label: 0.0

compound: O=C(/C(=C/c1ccc(Cl)cc1)c1ccccc1)c1ccc(O)cc1
discrete label: 1.0

compound: O=C(COc1ccc(Cl)cc1)OCCO
discrete label: 0.0

compound: CCC[n+]1ccnc2ccccc21
discrete label: 0.0

compound: CCC(=O)/C(=C\c1ccccc1)C(=O)C(C)CN(C)C (centres undefined)
discrete label: 0.0

compound: CC(=O)[C@H]1CC[C@H]2[C@@H]3CC[C@H]4C[C@@H](N5CCOCC5)CC[C@]4(C)[C@H]3CC[C@]12C
discrete label: 1.0

compound: Nc1ccc(Cl)c2c1C(=O)c1ccccc1C2=O
discrete label: 1.0

compound: O=C(C(=O)n1ncc(Cl)c(Cl)c1=O)n1ncc(Cl)c(Cl)c1=O
discrete label: 0.0

compound: COc1ccc(C2=C(Cl)C(=O)N(c3ccc(C)cc3)C(=O)C2(Cl)Cl)cc1
discrete label: 1.0

compound: O/N=C(/Cc1ccccc1)c1ccc2c(c1)OCO2
discrete label: 0.0

compound: CC(C)=CCc1c2c(c3occ(-c4ccc(O)c(O)c4)c(=O)c3c1O)C=CC(C)(C)O2
discrete label: 1.0

compound: CC(C)Cn1cnc2c(SCc3ccccc3[N+](=O)[O-])nc(N)nc21
discrete label: 1.0

compound: Oc1cc(Br)cc2cccnc12
discrete label: 1.0

compound: C=C(CN1CCCC1)C(=O)c1ccc(OC)cc1
discrete label: 0.0

compound: CC(=O)N(C(C)=O)C1=C2c3ccccc3N(S(=O)(=O)c3ccccc3)C2n2c(=O)n(-c3ccccc3)c(=O)n2C1 (centres undefined)
discrete label: 1.0

compound: C#CCN1CCN(C(=S)N/N=C(\C)c2ccccn2)CC1
discrete label: 1.0

====

# assay text: NCI Yeast Anticancer Drug Screen. Data for the mec2-1 strain (AID 157)
# experimental context: S. cerevisiae mec2-1 strain, at 50.0 µM (retest, dose inferred, filed as 5.0), hits give high values
# Experimental: Growth inhibition of yeast strains with defined genetic alterations is measured as a screen for potential anti-cancer activity. Selected strains with alterations in DNA damage repair or cell cycle control were exposed to compounds and growth inhibition was measured relative to vehicle treated controls. The strain used in this assay is mec2-1
This is part of a sample that, as a whole, favours compounds with a hit. Of some 79,000 tested, about 15% had one in any assay.
Entries and their measured growth inhibition follow.

compound: [O-][n+]1ccccc1Sc1nc(Sc2cccc[n+]2[O-])nc(Sc2cccc[n+]2[O-])n1
u: %
growth inhibition: 99

compound: COC(=O)c1ccc(CCC2=CC(=O)C=CC2=O)cc1
u: %
growth inhibition: 100

compound: CCCCOC(=O)c1ccc(S(=O)(=O)c2ccc(C(=O)OCCCC)cc2)cc1
u: %
growth inhibition: -3

compound: CCCCCCCCCCCCCC(=O)OCCCC1CCCO1 (stereo not given)
u: %
growth inhibition: 2

compound: CC(C)c1ccc2c(c1)CCC1C(C)(C(=O)O)CCCC21C (stereo not given)
u: %
growth inhibition: 97

compound: C[n+]1c(-c2ccc(/C=N\NC(=O)c3ccc(C(=O)N/N=C/c4ccc(-c5cn6ccsc6[n+]5C)cc4)cc3)cc2)cn2ccsc21
u: %
growth inhibition: 98

compound: CCCCNC(=S)N/N=C/c1cccc(C)n1
u: %
growth inhibition: 98

compound: O=C(O)c1c2c(c(O)c3c1CN(C1CCCCC1)CO3)OCN(C1CCCCC1)C2
u: %
growth inhibition: 8

compound: CC12C(=O)N(CC(=O)O)C(=O)C1(C)C1c3ccccc3C2c2ccc3ccccc3c21 (stereo not given)
u: %
growth inhibition: 98

compound: O=[N+]([O-])c1ccc2c(Nc3ccccc3-c3ccccc3Nc3c4ccccc4nc4cc([N+](=O)[O-])ccc34)c3ccccc3nc2c1
u: %
growth inhibition: 98

compound: CCC(=O)OC1=C(Br)C(=O)c2ccccc2C1=O
u: %
growth inhibition: 94

compound: [Pt].c1ccc([PH+](CC[PH+](CC[PH+](c2ccccc2)c2ccccc2)CC[PH+](c2ccccc2)c2ccccc2)c2ccccc2)cc1
u: %
growth inhibition: 98

compound: Cc1occc1C(=S)Nc1ccc(Cl)c(C(=O)OCC(F)(F)F)c1
u: %
growth inhibition: 93

compound: O[C@H](CNCCS)[C@@H](O)CNCCS
u: %
growth inhibition: 28

compound: C[C@]12CC[C@H](O)C[C@@H]1CC[C@@H]1[C@@H]2CC[C@]2(C)[C@@H](c3cc(C(F)(F)F)n[nH]3)CC[C@@H]12
u: %
growth inhibition: 86

compound: Clc1ccc(CN2CCN(Cc3ccc(Cl)cc3)C2c2ccc(Cl)cc2)cc1
u: %
growth inhibition: 58

compound: N=C(N)SCc1ccc(Br)cc1
u: %
growth inhibition: -23

compound: COC(=O)c1cc(-c2ccc(C)cc2)c2c(=O)n(-c3ccccc3)[nH]c2n1
u: %
growth inhibition: 71

compound: FC(F)(F)c1nc(SCc2ccc(Cl)cc2)n[nH]1
u: %
growth inhibition: 1

compound: COc1cc(C2C(Cl)C(=O)N2NC(=O)c2ccc(NC(C)=O)cc2)cc(OC)c1OC (stereo not given)
u: %
growth inhibition: -16
